- TEST METHOD NOTES: yeast display, Sf9 membrane polyspecificity reagent, FACS + sequencing; frameworks hold sequencing errors
REPORTED ENDPOINT: polyreactivity (PSR sort gate)

In [3]: df
Out[3]:
                           residue_sequence         assay_result
0  QVQLVESGGGLVQAGGSLRLSCAASGRTFTRYVMGWYRQAPAKEREVVAAISSSGGTYYADSVKGRFTISRDNAKNTVYLQMNSLKPEDTAVYYCAVGSKLSRSYGYYYWGQGTQVTVSS  high polyreactivity
1  QVQLVESGGGLVQAGGSLRLSCAASGRTFLLYAMGWYRQAPGKERELVAAISRGGGSTFYADTVKGRFTLSRDNAKNTVYLQRNSLKPDDTAVYYCAAYGRYYYIYDYCGQGTQVTVSS  high polyreactivity

---

- TEST METHOD NOTES: yeast display, Sf9 membrane polyspecificity reagent, FACS + sequencing; frameworks hold sequencing errors
REPORTED ENDPOINT: polyreactivity (PSR sort gate)

Recorded polyreactivity (PSR sort gate), per entry:
RESIDUE SEQUENCE	polyreactivity (PSR sort gate)
QVQLGDSGGGLVQAGGSLRLSCAASGFSIFTYAMGWYRQAPGKERELVAAITTGGSTNYADSVKGRFTISRDNAKNTVYLKMNSLKPEDTALYYCAALRVSVILLVRLDYWGQGTQVTVSS	low polyreactivity
QVQLVESGGGLVQAGGSLRLSCAASGRIFPNAMGWYRQAPGKERELVAAISWSGVTTTYADSVKGRFTISRDNAKNTVYLQMNSLKPEDTAVYYCAARYWAYGYWGQGTQVTVSS	high polyreactivity
QVQLVESGGGLVQAGGSLRLTCAASGRTFALYAMGWYRQAPGKERELVAGITGRGGTTHYADSVKGRFTISRDYAKNTVYLQMNSLKPEDTAVYYCATTQSWRVPYRRLGYWGQGTQVTVSS	low polyreactivity
QVQLVESGGGLVQAGGSLRLSCAASGRTFGYYAMGWYRPAPGKERELVAAISSNTDSTYYADSVKGRFTISRDNAKNTVYLQMNSLKPEDTAVYYCAAEAYSYYPGTYEDDYWGQGTQVTVSS	low polyreactivity

As a next step, examine the sequence that follows.
Prompt line: Quick one: polyreactivity (PSR sort gate) of "QVQLVESGGGLVQAGGSLRLSCAASGSIFKYNAMGWYRQAPGKERQLVAAISSSGGYTSYADSVKGRFTISRDNAKNTVYLQMNSLKPEDTAVYYCNAPYLIYKKGRYDYWGQGTQVTVSS" ?
Response line: high polyreactivity

---

- TEST METHOD NOTES: yeast display, Sf9 membrane polyspecificity reagent, FACS + sequencing; frameworks hold sequencing errors
REPORTED ENDPOINT: polyreactivity (PSR sort gate)

Recorded polyreactivity (PSR sort gate), per entry:
RESIDUE SEQUENCE	polyreactivity (PSR sort gate)
QVQLVESGGGLVQAGGSLRLSCAASGFIFVPYAMGWYRQAPGKERELVAAISSSGGSTNYTDSVKGRFTISRDNAKNTVYLQMISLKPEDTAVYYCAAATWYVNPTHFNRYSEFYYWGQGTQVTVSS	low polyreactivity
QVQLVESGGGLVQAGGRLRLSCAASGRTLSRYAMGWYRQAPGKERELVAAINNGGNTNYADSVKGRFTISRDNAKNTVYLQMNSLKPEDTAVYYCAVRWYPRYGSSYDYWGQGTQVTVSS	high polyreactivity
QDQLVESGGGLVQAGASLRLSCAASGFIFVFNAMGWYRQAPGKERELVAAINGGDITNYADSVKGRFTISRDNAKNTVYLQMTSLKPEDTAVYYCAADGEDSLWTGYDYDYWGQGTQVTVSS	low polyreactivity
QVQLVESGGGLVQAGGSLRLSCDASGSIFPLYAMGWYRQAPGKERELVAAITSGTSTNYADSVKGRFTISRDNAKNTVYLQMNSLKPEDTAVYYCAADVYTRFWRVYRFDYWGQGTQVTVSS	low polyreactivity
QVQLVESGGGLVQAGGSLRLSCAASGLIFPRYGMVWYRKAPGKERELVAAISWSGGSTYYADSVKGRFTISRDNAKNTVYLQMNSLKPEDTAVYYCAVLSNRGVYGSDYWGQGTQVTVSS	high polyreactivity
QVQLVESGVGLVQAGGSLRLSCAASGFTFRRYAMGWYRQAPGKERELVAAISIRGGRTYYADSVKGRFTISRDNAKNTVYLQMNSLKPEDTAVYYCAADGVYALDVESDSWGQGTQVTVSS	high polyreactivity
QVQHVESGGGLVQAGGSLLLSCAASGFIFKSNAMGWYRQAPGKERELVAAITSSGGRTYYADSVKGRFTISRDNAKNTVYLQMNSLKPEDTAVYYCAADIALGRYYYWGQGTQVTVSS	high polyreactivity
QVQLVESGGGLVQAGGSLRLSCAASGRIFGVYVMGWYRQAPGKERELVAAISWSGSHTYYADSVKGRFTISRDNAKNTVYLQMNSLKPEDTAVYYCNADSSPEYTGPGLDWYDYWGQGTQVTVSS	low polyreactivity

Prompt line: Quick one: polyreactivity (PSR sort gate) of "QVQLVESGGGLVEAGGSLRLSCAASGFTFRQYAMGWYRQAPGKEWELVAAISSGGSTYYADSVKGRFTISRDNAKNTDYVQMNSLKPEDTAVYYCAATHWAYSRVPYDYWGQGTQVTVSS" ?
Response line: high polyreactivity

Prompt line: Now give it for "QVQLVESGGGLVQAGGSLRLSSAASGSILYFNAMGWYRQAPGKERELVAAISRSGGSTYYADSVKGRFTISRDNAKNTVYLQMNSLKPEDTAVYYCAAVYIRCRGNRFDYWGQGTQVTVSS" too.
Response line: high polyreactivity

Prompt line: Now give it for "QVQLVESGGGLVQAGGSLRLSCAASGRIFGAYAMGWYRQAPGKERELVAAITQSGGSTFYADSVKGRFTISRDNAKNTVYLQMNSLKPEDTAVYYWGQGTQVTVSS" too.
Response line: low polyreactivity

Prompt line: Now give it for "QVQLVESGGGLVQAGGSLRLSCAASGSTFWVNAMGWYRQAPGKERELVAAISNSGGSTYYADSVKGRFTISRDNAKNTVYLQMNSLKPEDTAVYYCAAAGGVDYDYWGQGTQVTVSS" too.
Response line: low polyreactivity

---

- TEST METHOD NOTES: yeast display, Sf9 membrane polyspecificity reagent, FACS + sequencing; frameworks hold sequencing errors
REPORTED ENDPOINT: polyreactivity (PSR sort gate)

Recorded polyreactivity (PSR sort gate), per entry:
RESIDUE SEQUENCE	ASSAY RESULT
QVQLVESGGGLVQAGGSLRLSCAASGGTFRLYAMGWYRQAPGKERELVAAITGSSGGTYYADSVKGRFTISRDNAKNTVYLQMNSLKPEDTAVYYCAARSSYWGQGTQVTVSS	low polyreactivity
QVQLVESGGGLVQAGGSLRLSCAASGFTFLDNAMGWYRPAPGKERELVAAISGIGGSTSYADSVKGRFTISRDNAKNTVYLQMNSLKPEDTAVYYCATRWQTVGRDTIFAYDYWGQGTQVTVSS	low polyreactivity
QVQLVESGGGLVQAGGSLRLSCAASGFTFSHYAMGWYRQAPGKEREVVADISRRGGRTYYADSVKGRFTISRDNAKNTVSLQMNSLKPEDTAVYYCAAPDESYSVWRLDGLDYWGQGTQVTVSS	high polyreactivity
QVQLVESGGGLVQAGGSLRLSCAASGSTFREYAMGWSRQAPGKERELVAAISSGDSTNYADSVKGRFTISRDNAKNTVYLQMNSLKPEDTAVYYCAADAPGAAAVQNDYWGQGTQVTVSS	low polyreactivity
QVQLVESGGGLVQAGGSLRLSCAASGNIFSDYAMGWYRPAPGKERELVAAISSGGNTNYADSVKGRFTISRDNAKNTVYLQMNSLKPEDTAVYYCAADPGYYVSAYDYWGQGTQVTVSS	low polyreactivity
QVQLVESGGGLVQAGGSLRISCAASGSIFGYAMACYRQGPGKERELVAAITSSGGSTYYADSVKGRFTISRDNAKNTVYLHKNSLKPEDTAGYYCNAYLRWYITLLRFLAGGDYWGQGYQVTVSS	high polyreactivity

Prompt line: Quick one: polyreactivity (PSR sort gate) of "QVQLVESGGGLVQAGGSLRISCAASGFILTGYTMGWYRQAPGKERELVAAISWSGARTYYADSVKGRFTISRDNAMNTVYLQMNSLKPEDTAVYYCARDYYRPTQRYDYWGQGTQVTVSS" ?
Response line: high polyreactivity

Prompt line: Now give it for "QVQLVESGGGLVQAGGSLRLSCAASGFTFPQYAMGWYIQAPGKERELVASITRRGGSTFYADSVKGRFTISRDNAKNTVYLQMNSLKPEDTAVYYSAAGDYSRSVSRYWYTDYDYWGQGTQVTVSS" too.
Response line: high polyreactivity

Prompt line: Now give it for "QVQLVESGGGLVQAGGSLRLSCAASGGYGMGWYRQAPGKERELVAAISYSGGSTYYADSVKGRFTISRDNAKNTVYLQMNSLKPEDTAVYYCNVLRGSLNGWWPGYDYWGQGTQVTVSS" too.
Response line: low polyreactivity

Prompt line: Now give it for "QVQLVESGGGLVQAGGSLRLSWAASGHTFHGYDMGWYRQEPGKERDLVAAITSTGGSTHYSDSVKGRFTISRDNAKNTVYLQMNSLKPEDTAVFFCANRSYGLTRAYSAGNFWGQGTQVTVSS" too.
Response line: low polyreactivity

Prompt line: Now give it for "QVQLVESGGGLVQAGGSLRLSCAASGFTFYSYAMGWYRQAPGKERELVAAITRSGGNTYYADSVKGRFTISRDNAKNTVYLQMNSLKPEDTAVYYCAAPGKGISPSHYYWGQGPQVTVSS" too.
Response line: high polyreactivity
